Recorded measurements of odor-evoked OSN spike response, one per entry
Tested on: Drosophila ezoana antennal basiconic sensillum ab8
Assay: odor-evoked OSN spike response (post minus pre-stimulus); higher = stronger neuronal excitation
Details: odor dilution: 10^-4
Dear colleague, please return just the value in spikes/s, with no unit written.

Solved entries (count: 3):
COMPOUND	odor-evoked OSN spike response, spikes/s
CCOC(=O)CC(C)O (stereo not given) [Ethyl-3-hydroxybutyrate]	108
CCCCCCOC(C)=O [Hexyl acetate]	88.7
CCCCCCO	176

stdin: Using the record for OCCc1ccccc1 , report its odor-evoked OSN spike response.
stdout: 63.9

stdin: Using the record for CC(C)CCO , report its odor-evoked OSN spike response.
stdout: 65.8

###

System: Drosophila ezoana antennal basiconic sensillum ab7
Experiment: odor-evoked OSN spike response (post minus pre-stimulus); higher = stronger neuronal excitation
Conditions: odor dilution: 10^-4
Recorded measurements of odor-evoked OSN spike response, one per entry
Dear colleague, please return just the value in spikes/s, with no unit written.

stdin: Using the record for CCOC(=O)CC(C)O (stereo unspecified) [Ethyl-3-hydroxybutyrate] , report its odor-evoked OSN spike response.
stdout: 80.1

###

System: Drosophila ezoana antennal basiconic sensillum ab7
Assay: odor-evoked OSN spike response (post minus pre-stimulus); higher = stronger neuronal excitation
Settings: odor dilution: 10^-4
Use 60 spikes/s as the dividing line for odor-evoked OSN spike response, with the line itself on the T side and lower values as F.

Take a look at these entries with their results.
COMPOUND	DISCRETE_LABEL
CCCCCCCC(C)O (stereo not given)	F
C[C@H]1CCC[C@@]2(C)CCCC[C@]12O	F
CCCCCC(=O)OCC [ethyl hexanoate]	T

Turning now to a further compound:
stdin: Is the recorded value of odor-evoked OSN spike response equal to or greater than 60 spikes/s for this compound? CC(=O)CCC=C(C)C
stdout: T

This collection of values is drawn from the supplement of paper PMC10477191.
